Reported TGI by item:
Tested on: LXFL 529 NSCLC
Assay: NCI tumour cell line growth inhibition, 48 h

Worked examples follow.
COC(=O)C(CC(=O)Nc1ccc(Cl)c(Cl)c1)C(=O)C(=O)Nc1ccc(Cl)c(Cl)c1 (stereo not given)    > 100 µM
Cc1nc(/C=C2\C(=O)C=Cc3ccccc32)c(O)o1    > 100 µM
C#CC1(O)CCC2[C@@H]3CCc4cc(Oc5nc(F)nc(-c6c7ccccc7c(SCC)n6CCC)n5)ccc4C3CC[C@@]21C (stereo not given in full)    > 100 µM

Return TGI for the following molecule: CCOc1ccc(NCC2CC/C(=C\c3ccccc3OC)C2=O)cc1 (stereo not given)
6.5 µM

Return TGI for the following molecule: COc1cc(C(C)c2cc3c(cc2OCCNC(=O)COc2cc4c(cc2C(C)c2cc(OC)c(OC)c(OC)c2)OCO4)OCO3)cc(OC)c1OC (stereo not given)
> 100 µM

---

Tested on: UO-31 renal
Experiment: NCI tumour cell line growth inhibition, 48 h; in the data active = GI50 below about 0.43 µM; inactive = the rest
// classify into 1 = active, 0 = inactive

Some entries whose results are on file:
O=CN1N=C(c2cccc(Nc3ccnc4cc(Cl)ccc34)c2)CC1c1ccccc1 (stereo not drawn)    1
ClCc1ccccc1Cn1cnc2c(Cl)ncnc21    0
COC(=O)c1c2c(c(C)[n+]([O-])c1C)C(=O)C=C(NCc1cccc(Cl)c1)C2=O    0

Which outcome did this test record for the compound "C=C1C(=O)O[C@H]2[C@H]1CC/C(Cn1cc(-c3ccc(F)cc3)nn1)=C\CC[C@@]1(C)O[C@@H]21" ?
0

Which outcome did this test record for the compound "CCCCCCCCCCCCCC[n+]1ccc(C(N)=O)cc1" ?
0

Which outcome did this test record for the compound "N#C/C(=N\Nc1ccccc1)C(=O)Nc1cc(-c2ccccc2)nn1-c1ccccc1" ?
0

Which outcome did this test record for the compound "CC(=O)O[C@H]1C(=O)[C@@]2(C)[C@H]([C@H](OC(=O)c3ccccc3)[C@]3(O)C[C@H](OC(=O)[C@H](OC(=O)OC[C@H]4COC(C)(C)O4)[C@@H](NC(=O)c4ccccc4)c4ccccc4)C(C)=C1C3(C)C)[C@]1(OC(C)=O)CO[C@@H]1C[C@@H]2O" ?
0

Which outcome did this test record for the compound "COC1=CC(c2ccc[nH]2)=N/C1=C\c1[nH]c(C)c(CC(=O)OCc2ccccc2)c1C" ?
1

---

System: ACHN renal
Experiment: NCI tumour cell line growth inhibition, 48 h
measured-endpoint: TGI

Worked examples follow.
CCOc1ccc(NCC2CC/C(=C\c3ccccc3OC)C2=O)cc1 (stereo unspecified)    27.8 µM
COC(=O)C(Cc1c[nH]c2ccccc12)NP(=O)(O)OCC1OC(n2cc(Br)c(=O)[nH]c2=O)CC1O (stereo unspecified)    > 100 µM
COc1ccc(C(=O)CC2=Nc3nnc(CCCCCCCc4nnc5n4C(=O)C(CC(=O)c4ccc(OC)cc4)=N5)n3C2=O)cc1    > 100 µM

Return TGI for the following compound: "C=C1SC(=Nc2ccccc2Cl)N(C(=O)c2sc3ccccc3c2Cl)C12CCCCC2"
> 100 µM

Return TGI for the following compound: Nc1ccc(COC(O)CN2CCCCC2)cc1[N+](=O)[O-] (stereo unspecified)
> 100 µM

---

Reported TGI by item:
Test system: HOP-18 NSCLC
Assay: NCI tumour cell line growth inhibition, 48 h

Worked examples follow.
CCCCCCCCCCCCCCCCOP(=O)([O-])OCC[N+](C)(C)C    > 100 µM
CCCCc1c2cnccc2c(CCCC)c2c1[nH]c1ccccc12    24.8 µM
C#CC1(O)CCC2[C@@H]3CCc4cc(Oc5nc(F)nc(-c6c7ccccc7c(SCC)n6CCC)n5)ccc4C3CC[C@@]21C (some centres not stated)    > 100 µM
CC(C)(C)N/N=C(\C(=O)Nc1nc(=S)[nH][nH]1)C1C(=O)Nc2ccccc2S1=O (configuration not stated)    > 100 µM
CCCN(CCC)C(=O)c1nc(N)nc(-c2ccc(OC)cc2)c1-c1ccc(OC)cc1    > 100 µM
CCOC(=O)C12C(C(=O)OC)=C(C)N(NC(=O)Nc3ccccc3)C1(N)N(NC(=O)Nc1ccccc1)C(C)=C2C(=O)OC (configuration not stated)    > 86 µM
COc1ccc2c(c1)NC1(O)c3ccccc3C(=O)C21O (configuration not stated)    > 100 µM
C=CC(C)C1(CCCOCc2ccccc2)C(=S)N2CCC3(CC24CCCC14)OCCO3 (configuration not stated)    > 100 µM

Return TGI for the following molecule: "O=S(=O)(N=NC=C1c2ccccc2N(O)c2ccccc21)c1ccc(Cl)cc1"
> 100 µM

Return TGI for the following molecule: OC12c3ccccc3C1CCCCCCCCCC21OCCO1 (configuration not stated)
> 100 µM

Return TGI for the following molecule: "Cc1nc(/C=C2\C(=O)C=Cc3ccccc32)c(O)o1"
> 100 µM

Return TGI for the following molecule: CNC(=O)SCC(NC(=O)CCC(N)C(=O)O)C(=O)NCC(=O)O (configuration not stated)
> 100 µM

---

Test system: HOP-92 NSCLC
Assay: NCI tumour cell line growth inhibition, 48 h
Threshold rule: TGI greater than or equal to 8 µM is met; below that, not met.

Some entries whose results are on file:
O=C(C/C(=N/O)C(F)(F)F)c1cccs1    met
CCn1c2c(c3ccccc31)[C@@H](c1ccc(Cl)cc1)CC1C(=O)N(c3ccccc3)C(=O)C21 (stereo not given in full)    met
C[C@H]1COCCN1c1cc(C2(S(=O)(=O)C3CC3)CC2)nc(-c2ccc(NC(=S)NCCO)cc2)n1    not met
CN1Cc2cc(O)c(O)cc2C(O)C1 (stereo not given)    met

Would you say CCCCCCCCP(=O)(O)OP(=O)(O)OCC1OC(n2ccc(N)nc2=O)C(O)C1O (stereo not given) shows TGI at minimum 8 µM?
met

Would you say "O=C(c1ccco1)c1c(C(F)(F)F)n([O-])c2cc(C(F)(F)F)ccc2[n+]1=O" shows TGI at minimum 8 µM?
not met

Would you say "C=C(C)[C@H]1C2=CC(C)=C(O2)[C@@H](O)[C@H](C(=C)C)CCC2=C[C@H]1OC2=O" shows TGI at minimum 8 µM?
met

---

System: OVCAR-4 ovarian
Test: NCI tumour cell line growth inhibition, 48 h
Reported GI50 by item:

Worked examples follow.
C=C1C(=O)O[C@H]2[C@H]1CC/C(Cn1cc(-c3ccc(F)cc3)nn1)=C\CC[C@@]1(C)O[C@@H]21    1.29 µM
COc1ccc(/C=C2\SC(=Nc3ccccc3)NC2=O)cc1    10 µM
C=C1C(=O)O[C@H]2[C@H]1CC/C(COC(=O)OC/C1=C/CC[C@@]3(C)O[C@H]3[C@H]3OC(=O)[C@@H](CN(C)C)[C@@H]3CC1)=C\CC[C@@]1(C)O[C@@H]21    1.42 µM
CC(=O)O[C@H]1C(=O)[C@@]2(C)[C@H]([C@H](OC(=O)c3ccccc3)[C@]3(O)C[C@H](OC(=O)[C@H](OC(=O)OC[C@H]4COC(C)(C)O4)[C@@H](NC(=O)c4ccccc4)c4ccccc4)C(C)=C1C3(C)C)[C@]1(OC(C)=O)CO[C@@H]1C[C@@H]2O    > 33.3 µM
CN(C)CCCC1(c2ccc(F)cc2)OCc2cc(-c3cc4ccccc4s3)ccc21 (configuration not stated)    1.94 µM

Return GI50 for the following molecule: CC([C@H]1CC=C2C3CCC4=C[C@@H](N(C)C)CC[C@]4(C)C3CC[C@@]21C)N(C)C (some centres not stated)
3.26 µM

Return GI50 for the following molecule: "Clc1ccc2nc(CI)c(CI)nc2c1"
2.45 µM

---

System: TK-10 renal
Assay: NCI tumour cell line growth inhibition, 48 h
measured-endpoint: TGI (µM)
Just the number please, in µM, no unit attached.

Worked examples follow.
O=C(Nc1ccc(F)cc1)Nc1ccc(Br)c(C(F)(F)F)c1    7.43
CC(C)C(=O)c1c(C(F)(F)F)n([O-])c2cc(F)c(F)cc2[n+]1=O    2.67

Kindly review the next compound as well.
Return TGI for the following compound: CCCCc1ccc(Nc2nc(Cl)c3ccn(C4CC(Oc5ccc(C)cc5)C(COc5ccc(C)cc5)O4)c3n2)cc1 (stereo not given)
43.4

---

System: HS 578T breast
Assay: NCI tumour cell line growth inhibition, 48 h; in the data active = GI50 below about 0.43 µM; inactive = the rest
// classify into yes (1) = active, no (0) = inactive

Some entries whose results are on file:
CN(C)CCCC1(c2ccc(F)cc2)OCc2cc(-c3cc4ccccc4s3)ccc21 (centres undefined)    no (0)
CCCCCCCCCCCCCC[n+]1ccc(C(N)=O)cc1    no (0)
O=C(c1ccccc1)c1c(C(F)(F)F)n([O-])c2cc(C(F)(F)F)ccc2[n+]1=O    no (0)
CCCCCCCCCCCCCCCCOP(=O)([O-])OCC[N+](C)(C)C    no (0)
O=C1C(=O)c2ccccc2C(O)=C1CCCc1ccc(C2CCCCC2)cc1    no (0)

Which outcome did this test record for the compound "CC(C)C(=O)c1c(C(F)(F)F)n([O-])c2cc(F)c(F)cc2[n+]1=O" ?
no (0)

Which outcome did this test record for the compound "O=C(CI)Nc1ccc(O)c2ccccc12" ?
no (0)

Which outcome did this test record for the compound "O=c1oc2cc(OC/C(=N/O)c3ccc(F)cc3)ccc2c2ccccc12" ?
no (0)

Which outcome did this test record for the compound CC(C)=CC(=O)N[C@H]1CC[C@]2(C)C3CC[C@]4(C)C(C(C)N(C)C)=CCC4C3CCC2[C@H]1O (some centres undefined) ?
no (0)

Which outcome did this test record for the compound "Clc1ccc2nc(CI)c(CI)nc2c1" ?
no (0)

Which outcome did this test record for the compound "Cc1cc(OCCOCCC(F)(F)P(=O)(O)O)ccc1CCc1cnc2c(N)nc3cc(CCC(=O)O)ccc3c2c1" ?
no (0)

Which outcome did this test record for the compound "COc1ccc(NC(=O)c2sc3nc(C)c(C(=O)/C=C/c4cccc(OC)c4)cc3c2N)cc1" ?
no (0)

Which outcome did this test record for the compound "C[n+]1c2ccccc2nc2ccccc21" ?
no (0)

Which outcome did this test record for the compound "CC(=O)O[C@H]1C(=O)[C@@]2(C)[C@H]([C@H](OC(=O)c3ccccc3)[C@]3(O)C[C@H](OC(=O)[C@H](OC(=O)OC[C@H]4COC(C)(C)O4)[C@@H](NC(=O)c4ccccc4)c4ccccc4)C(C)=C1C3(C)C)[C@]1(OC(C)=O)CO[C@@H]1C[C@@H]2O" ?
yes (1)

Values compiled from PubChem BioAssay (NCI).
